Target: calcium channels (Oryctolagus cuniculus)
Construct: from tissue; host or cells: heart of female New Zealand white rabbits, membrane fraction (42,000×g pellet)
Sequence (P15381 whole entry, other chains not shown): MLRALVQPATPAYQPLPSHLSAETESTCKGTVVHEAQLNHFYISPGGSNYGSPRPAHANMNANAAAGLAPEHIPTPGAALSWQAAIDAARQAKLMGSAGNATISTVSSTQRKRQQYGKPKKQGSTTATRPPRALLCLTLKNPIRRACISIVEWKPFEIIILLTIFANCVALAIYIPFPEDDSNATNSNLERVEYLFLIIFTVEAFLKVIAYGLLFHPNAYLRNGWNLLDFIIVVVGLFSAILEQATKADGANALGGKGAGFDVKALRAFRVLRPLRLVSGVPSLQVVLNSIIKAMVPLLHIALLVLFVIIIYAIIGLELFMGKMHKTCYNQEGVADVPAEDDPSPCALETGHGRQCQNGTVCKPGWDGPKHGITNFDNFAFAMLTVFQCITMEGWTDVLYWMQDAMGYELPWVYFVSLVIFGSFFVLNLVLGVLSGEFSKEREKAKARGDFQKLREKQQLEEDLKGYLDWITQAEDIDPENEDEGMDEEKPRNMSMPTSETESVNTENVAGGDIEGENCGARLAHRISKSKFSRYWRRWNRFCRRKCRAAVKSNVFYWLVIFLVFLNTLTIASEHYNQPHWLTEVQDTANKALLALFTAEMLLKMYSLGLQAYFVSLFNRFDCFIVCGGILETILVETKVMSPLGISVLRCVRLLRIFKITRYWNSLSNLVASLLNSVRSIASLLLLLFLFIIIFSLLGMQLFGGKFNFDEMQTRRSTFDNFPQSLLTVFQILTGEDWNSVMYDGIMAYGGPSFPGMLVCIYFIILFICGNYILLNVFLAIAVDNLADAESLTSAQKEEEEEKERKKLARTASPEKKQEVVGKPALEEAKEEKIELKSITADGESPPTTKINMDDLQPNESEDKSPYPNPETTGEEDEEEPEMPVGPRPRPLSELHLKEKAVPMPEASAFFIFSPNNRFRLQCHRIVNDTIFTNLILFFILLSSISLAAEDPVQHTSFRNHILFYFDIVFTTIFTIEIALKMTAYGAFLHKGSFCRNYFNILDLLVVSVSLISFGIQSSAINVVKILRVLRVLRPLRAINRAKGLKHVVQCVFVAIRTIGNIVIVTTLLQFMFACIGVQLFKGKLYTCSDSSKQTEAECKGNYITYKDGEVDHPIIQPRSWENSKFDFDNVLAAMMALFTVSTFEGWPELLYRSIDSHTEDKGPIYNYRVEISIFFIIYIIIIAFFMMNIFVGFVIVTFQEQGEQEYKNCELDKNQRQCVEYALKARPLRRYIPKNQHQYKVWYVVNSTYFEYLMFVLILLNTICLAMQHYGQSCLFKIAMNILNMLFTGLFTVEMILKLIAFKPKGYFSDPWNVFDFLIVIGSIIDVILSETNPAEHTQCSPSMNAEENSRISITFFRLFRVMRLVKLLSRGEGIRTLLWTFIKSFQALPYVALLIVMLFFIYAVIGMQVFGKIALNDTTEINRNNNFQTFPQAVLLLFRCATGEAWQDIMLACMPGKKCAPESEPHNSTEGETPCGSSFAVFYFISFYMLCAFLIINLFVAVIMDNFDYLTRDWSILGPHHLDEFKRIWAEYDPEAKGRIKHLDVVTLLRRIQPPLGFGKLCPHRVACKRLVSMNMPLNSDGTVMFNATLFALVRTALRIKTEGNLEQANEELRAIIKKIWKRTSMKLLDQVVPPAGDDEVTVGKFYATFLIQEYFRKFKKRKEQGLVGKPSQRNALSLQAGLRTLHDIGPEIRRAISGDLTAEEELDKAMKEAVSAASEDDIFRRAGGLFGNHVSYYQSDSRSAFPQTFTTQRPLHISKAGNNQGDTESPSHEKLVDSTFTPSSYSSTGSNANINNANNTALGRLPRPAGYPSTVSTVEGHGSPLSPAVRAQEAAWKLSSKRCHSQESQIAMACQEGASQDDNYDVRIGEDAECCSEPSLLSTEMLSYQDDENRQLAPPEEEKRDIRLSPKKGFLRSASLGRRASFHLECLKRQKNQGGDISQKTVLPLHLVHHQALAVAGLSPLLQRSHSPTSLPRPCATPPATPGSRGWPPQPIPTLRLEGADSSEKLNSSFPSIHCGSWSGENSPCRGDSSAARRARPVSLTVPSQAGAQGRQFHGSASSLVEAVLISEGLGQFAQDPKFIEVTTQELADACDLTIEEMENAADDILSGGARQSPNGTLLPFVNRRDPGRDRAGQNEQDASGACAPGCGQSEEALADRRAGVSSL
Sequence (P13806 27-960 partner limits assumed, other chains not shown): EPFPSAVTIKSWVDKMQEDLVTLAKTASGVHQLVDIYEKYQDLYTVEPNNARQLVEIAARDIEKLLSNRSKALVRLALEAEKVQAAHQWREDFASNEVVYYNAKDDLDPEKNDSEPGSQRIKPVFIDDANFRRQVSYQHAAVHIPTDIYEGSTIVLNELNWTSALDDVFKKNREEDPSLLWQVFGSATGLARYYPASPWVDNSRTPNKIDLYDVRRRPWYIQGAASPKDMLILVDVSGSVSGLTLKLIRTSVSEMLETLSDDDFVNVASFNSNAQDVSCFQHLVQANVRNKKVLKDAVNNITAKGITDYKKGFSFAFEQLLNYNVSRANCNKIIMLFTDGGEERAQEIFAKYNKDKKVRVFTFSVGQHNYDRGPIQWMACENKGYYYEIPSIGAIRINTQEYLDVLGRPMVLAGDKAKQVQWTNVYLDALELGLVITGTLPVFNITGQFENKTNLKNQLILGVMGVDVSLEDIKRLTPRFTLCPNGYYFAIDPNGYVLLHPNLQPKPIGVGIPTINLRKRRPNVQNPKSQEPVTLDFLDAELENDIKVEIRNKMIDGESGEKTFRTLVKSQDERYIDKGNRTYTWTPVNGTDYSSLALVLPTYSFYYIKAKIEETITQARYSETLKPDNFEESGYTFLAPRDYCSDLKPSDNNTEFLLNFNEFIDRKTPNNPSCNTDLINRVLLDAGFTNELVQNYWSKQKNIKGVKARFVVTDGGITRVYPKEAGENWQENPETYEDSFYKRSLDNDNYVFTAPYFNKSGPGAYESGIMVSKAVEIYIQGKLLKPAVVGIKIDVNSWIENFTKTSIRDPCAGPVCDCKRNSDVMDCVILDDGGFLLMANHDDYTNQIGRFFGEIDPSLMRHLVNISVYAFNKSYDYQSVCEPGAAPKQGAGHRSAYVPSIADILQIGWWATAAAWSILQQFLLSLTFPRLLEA
Sequence (P13806 961-1106 partner limits assumed, other chains not shown): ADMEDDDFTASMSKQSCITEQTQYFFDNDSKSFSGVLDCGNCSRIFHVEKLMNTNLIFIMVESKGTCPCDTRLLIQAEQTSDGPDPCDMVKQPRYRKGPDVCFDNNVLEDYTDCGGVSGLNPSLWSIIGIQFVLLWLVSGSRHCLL
Test: Inhibition of nitrendipine binding (3H-nitrendipine displacement, rabbit heart membranes)
Design: species or system rabbit (New Zealand white)
Conditions: Table II, 90 min, 4° C.
Source text: (1) Inhibition of nitrendipine binding to calcium channels. The assay for inhibition of nitrendipine binding follows the following procedure: Female, New Zealand white rabbits (1-2 kg) are sacrificed by cervical dislocation, and the heart is immediately removed, cleaned, and chopped into small pieces. The tissue is homogenized in 5× volume of 0.05M Hepes buffer, pH 7.4. […] After rinsing, the filters are dried and counted in a liquid scintillation counter. […]
pIC50: −log10 of the molar value.
// label = Criterion met if pIC50 is not less than 7, otherwise Criterion not met

>  <COMPOUND>
CC1=C(C(=O)OCCNc2ccccc2)C(c2cccc([N+](=O)[O-])c2)C2=C(CCCCS2(=O)=O)N1 (stereo not shown) [4 3-NO2C6 H4 CH2 CH2 NHC6 H5]

>  <CLASS_ASSIGNMENT>
Criterion met

$$$$
>  <COMPOUND>
CC1=C(C(=O)OCCN(C)Cc2ccccc2)C(c2ccccc2F)C2=C(CCCCS2(=O)=O)N1 (stereo not shown) [4 2-FC6 H4]

>  <CLASS_ASSIGNMENT>
Criterion not met

$$$$
>  <COMPOUND>
CC1=C(C(=O)OCCN(C)Cc2ccccc2)C(c2cccc(C(F)(F)F)c2Cl)C2=C(CCCCS2(=O)=O)N1 (stereo not shown) [4 2-Cl,3-CF3C6 H3]

>  <CLASS_ASSIGNMENT>
Criterion not met

$$$$
>  <COMPOUND>
CC1=C(C(=O)OCCN(C)Cc2ccccc2)C(c2c(F)cccc2Cl)C2=C(CCCCS2(=O)=O)N1 (stereo not shown) [4 2-Cl,6-FC6 H3]

>  <CLASS_ASSIGNMENT>
Criterion met

$$$$
>  <COMPOUND>
CC1=C(C(=O)OC2CCN(Cc3ccccc3)CC2)C(c2cccc([N+](=O)[O-])c2)C2=C(CCCCS2(=O)=O)N1 (stereo not shown) [4 3-NO2C6 H4 drawing 7]

>  <CLASS_ASSIGNMENT>
Criterion not met

$$$$
>  <COMPOUND>
CC1=C(C(=O)OCCCN(C)Cc2ccccc2)C(c2ccccc2[N+](=O)[O-])C2=C(CCCCS2(=O)=O)N1 (stereo not shown) [4 2-NO2C6 H4 CH2 CH2 CH2 NCH3 CH2 C6 H5]

>  <CLASS_ASSIGNMENT>
Criterion not met

$$$$
>  <COMPOUND>
CC1=C(C(=O)OCCN(C)c2ccccc2)C(c2cccc([N+](=O)[O-])c2)C2=C(CCCCS2(=O)=O)N1 (stereo not shown) [4 3-NO2C6 H4 CH2 CH2 NCH3 C6 H5]

>  <CLASS_ASSIGNMENT>
Criterion met

$$$$
